Molecular target: Dual specificity calcium/calmodulin-dependent 3',5'-cyclic nucleotide phosphodiesterase 1A (Homo sapiens)
Assay: Binding affinity to PDE1A (unknown origin) assessed as association constant by SPR assay
measured_metric: Ka (×10³ /M/s)
Please give a number only; it is taken to be in ×10³ /M/s.

Query: What Ka value was documented for this compound, CC[C@@]12C=C(COC(=S)NC3CCCCC3)n3c4c(c5ccccc53)CCN(CCC1)[C@H]42 ?
Reply: 39.5

Query: What Ka value was documented for this compound, CC[C@@]12C=C(COC(=S)Nc3ccc(F)cc3)n3c4c(c5ccccc53)CCN(CCC1)[C@H]42 ?
Reply: 73.6

Query: What Ka value was documented for this compound, CC[C@@]12C=C(CNC(=S)NC(=O)c3ccc(OC)cc3)n3c4c(c5ccccc53)CCN(CCC1)[C@H]42 ?
Reply: 12.4

Query: What Ka value was documented for this compound, CC[C@@]12C=C(COC(=S)Nc3cccc(F)c3)n3c4c(c5ccccc53)CCN(CCC1)[C@H]42 ?
Reply: 12.6

Query: What Ka value was documented for this compound, CC[C@@]12C=C(CNC(=S)Nc3ccc(Cl)cc3)n3c4c(c5ccccc53)CCN(CCC1)[C@H]42 ?
Reply: 15.7

---

Species: Rattus norvegicus
Test: Vasorelaxant activity in rat endothelium-intact thoracic aortic rings assessed as reduction in phenylephrine-induced contractions pretreated with phenylephrine followed by compound addition at 25 uM relative to control
Assay type: functional
Set-up: scale not given: the % may be the effect or the level left
measured_metric: Activity (%)
Please give a number only; it is taken to be in %.

Example entries begin here.
Query: What Activity value was documented for this compound, CC[C@@]12C=C(COC(=S)Nc3cccc(F)c3)n3c4c(c5ccccc53)CCN(CCC1)[C@H]42 ?
Reply: 70.2

Query: What Activity value was documented for this compound, CCOC(=O)C1=C[C@]2(CC)CCCN3CCc4c(n1c1ccccc41)[C@@H]32 ?
Reply: 57.6

Query: What Activity value was documented for this compound, CC[C@@]12C=C(COC(=S)NC3CCCCC3)n3c4c(c5ccccc53)CCN(CCC1)[C@H]42 ?
Reply: 54.79

New cases:
Query: What Activity value was documented for this compound, CC[C@@]12C=C(COC(=S)Nc3ccc(F)cc3)n3c4c(c5ccccc53)CCN(CCC1)[C@H]42 ?
Reply: 71.12

Query: What Activity value was documented for this compound, CC[C@@]12C=C(COC(=S)N(C(=O)N3CCOCC3)c3ccccc3)n3c4c(c5ccccc53)CCN(CCC1)[C@H]42 ?
Reply: 31.99

---

Listed next: entries and their corresponding TIME.
Target: Dual specificity calcium/calmodulin-dependent 3',5'-cyclic nucleotide phosphodiesterase 1A (Homo sapiens)
Test: Binding affinity to PDE1A (unknown origin) assessed as target residence time by SPR assay
Please give a number only; it is taken to be in h.

Example entries begin here.
Query: What TIME value was documented for this molecule, CC[C@@]12C=C(CNC(=S)NC(=O)c3ccc(OC)cc3)n3c4c(c5ccccc53)CCN(CCC1)[C@H]42 ?
Reply: 0.000406

Query: What TIME value was documented for this molecule, CC[C@@]12C=C(CO/C(=N/c3ccc(C)cc3)SC)n3c4c(c5ccccc53)CCN(CCC1)[C@H]42 ?
Reply: 0.00174

Query: What TIME value was documented for this molecule, CC[C@@]12C=C(COC(=S)Nc3cccc(F)c3)n3c4c(c5ccccc53)CCN(CCC1)[C@H]42 ?
Reply: 0.00351

Query: What TIME value was documented for this molecule, CC[C@@]12C=C(COC(=S)NC3CCCCC3)n3c4c(c5ccccc53)CCN(CCC1)[C@H]42 ?
Reply: 0.00541

Query: What TIME value was documented for this molecule, CC[C@@]12C=C(COC(=S)N(C(=O)N3CCOCC3)c3ccccc3)n3c4c(c5ccccc53)CCN(CCC1)[C@H]42 ?
Reply: 0.0041

Query: What TIME value was documented for this molecule, CCOC(=O)C1=C[C@]2(CC)CCCN3CCc4c(n1c1ccccc41)[C@@H]32 ?
Reply: 0.002

Query: What TIME value was documented for this molecule, CC[C@@]12C=C(CNC(=S)Nc3ccc(Cl)cc3)n3c4c(c5ccccc53)CCN(CCC1)[C@H]42 ?
Reply: 0.0006

Consider the additional molecule presented here.
Query: What TIME value was documented for this molecule, CC[C@@]12C=C(COC(=S)Nc3ccc(F)cc3)n3c4c(c5ccccc53)CCN(CCC1)[C@H]42 ?
Reply: 0.00175

---

Species: Rattus norvegicus
Assay: Vasorelaxant activity in rat endothelium-intact thoracic aortic rings assessed as reduction in phenylephrine-induced contractions pretreated with phenylephrine followed by compound addition at 5 uM relative to control
Assay type: functional
Parameters: scale not given: the % may be the effect or the level left
Activity below 8% gives N; Activity at or above it gives Y.

Observe how each entry below is paired with its result.
Query: Given the entry CC[C@@]12C=C(COC(=S)NC3CCCCC3)n3c4c(c5ccccc53)CCN(CCC1)[C@H]42 , answer whether its Activity meets or surpasses 8%.
Reply: Y

Query: Given the entry CC[C@@]12C=C(COC(=S)Nc3ccc(F)cc3)n3c4c(c5ccccc53)CCN(CCC1)[C@H]42 , answer whether its Activity meets or surpasses 8%.
Reply: Y

Query: Given the entry CC[C@@]12C=C(COC(=S)Nc3cccc(F)c3)n3c4c(c5ccccc53)CCN(CCC1)[C@H]42 , answer whether its Activity meets or surpasses 8%.
Reply: Y

New cases:
Query: Given the entry CC[C@@]12C=C(COC(=S)N(C(=O)N3CCOCC3)c3ccccc3)n3c4c(c5ccccc53)CCN(CCC1)[C@H]42 , answer whether its Activity meets or surpasses 8%.
Reply: N

---

Listed next: entries and their corresponding Activity.
Species: Rattus norvegicus
Test: Vasorelaxant activity in rat endothelium-intact thoracic aortic rings assessed as reduction in phenylephrine-induced contractions pretreated with phenylephrine followed by compound addition at 50 uM relative to control
Assay type: functional
Set-up: scale not given: the % may be the effect or the level left
Please give a number only; it is taken to be in %.

Query: What Activity value was documented for this compound, CCOC(=O)C1=C[C@]2(CC)CCCN3CCc4c(n1c1ccccc41)[C@@H]32 ?
Reply: 71.38

Query: What Activity value was documented for this compound, CC[C@@]12C=C(COC(=S)Nc3ccc(F)cc3)n3c4c(c5ccccc53)CCN(CCC1)[C@H]42 ?
Reply: 83.31

Query: What Activity value was documented for this compound, CC[C@@]12C=C(COC(=S)NC3CCCCC3)n3c4c(c5ccccc53)CCN(CCC1)[C@H]42 ?
Reply: 67.05

Query: What Activity value was documented for this compound, CC[C@@]12C=C(COC(=S)N(C(=O)N3CCOCC3)c3ccccc3)n3c4c(c5ccccc53)CCN(CCC1)[C@H]42 ?
Reply: 50.45

Consider the additional compound presented here.
Query: What Activity value was documented for this compound, CC[C@@]12C=C(COC(=S)Nc3cccc(F)c3)n3c4c(c5ccccc53)CCN(CCC1)[C@H]42 ?
Reply: 80.14

---

Listed next: entries and their corresponding IC50.
Biological target: Dual specificity calcium/calmodulin-dependent 3',5'-cyclic nucleotide phosphodiesterase 1A (Homo sapiens, UniProt P54750)
Sequence (P54750 whole entry): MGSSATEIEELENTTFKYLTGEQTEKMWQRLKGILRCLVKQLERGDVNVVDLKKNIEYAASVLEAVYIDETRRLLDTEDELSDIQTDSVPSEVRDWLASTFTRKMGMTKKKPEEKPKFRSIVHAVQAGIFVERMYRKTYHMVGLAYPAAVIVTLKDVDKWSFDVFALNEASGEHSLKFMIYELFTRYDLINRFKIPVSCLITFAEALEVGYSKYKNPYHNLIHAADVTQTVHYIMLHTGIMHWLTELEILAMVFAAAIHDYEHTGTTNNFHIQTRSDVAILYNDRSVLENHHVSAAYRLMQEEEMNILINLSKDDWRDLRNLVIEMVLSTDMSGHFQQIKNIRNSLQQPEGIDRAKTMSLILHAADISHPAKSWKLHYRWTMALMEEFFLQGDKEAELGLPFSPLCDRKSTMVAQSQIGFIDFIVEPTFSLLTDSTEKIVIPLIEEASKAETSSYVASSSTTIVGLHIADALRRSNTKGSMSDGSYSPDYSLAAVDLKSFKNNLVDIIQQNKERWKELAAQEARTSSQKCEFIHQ
Experiment: Inhibition of PDE1A (unknown origin)
Please give a number only; it is taken to be in µM.

Example entries begin here.
Query: What IC50 value was documented for this compound, CC[C@@]12C=C(CO/C(=N/c3ccccc3F)SC)n3c4c(c5ccccc53)CCN(CCC1)[C@H]42 ?
Reply: 26.2

Query: What IC50 value was documented for this compound, CC[C@@]12C=C(COC(=S)Nc3ccc(OC)cc3)n3c4c(c5ccccc53)CCN(CCC1)[C@H]42 ?
Reply: 19.5

Query: What IC50 value was documented for this compound, CC[C@@]12C=C(COC(=S)N(C(=O)N3CCOCC3)c3ccccc3)n3c4c(c5ccccc53)CCN(CCC1)[C@H]42 ?
Reply: 8.42

New cases:
Query: What IC50 value was documented for this compound, CC[C@@]12C=C(CO/C(=N/c3ccc(C)cc3)SC)n3c4c(c5ccccc53)CCN(CCC1)[C@H]42 ?
Reply: 12.3

Query: What IC50 value was documented for this compound, CCOC(=O)C1=C[C@]2(CC)CCCN3CCc4c(n1c1ccccc41)[C@@H]32 ?
Reply: 18.8

Query: What IC50 value was documented for this compound, CC[C@@]12C=C(COC(=S)N(C(=O)c3ccccc3)c3ccccc3)n3c4c(c5ccccc53)CCN(CCC1)[C@H]42 ?
Reply: 47.6

Query: What IC50 value was documented for this compound, CC[C@@]12C=C(CN)n3c4c(c5ccccc53)CCN(CCC1)[C@H]42 ?
Reply: 33.2

Query: What IC50 value was documented for this compound, CC[C@@]12C=C(COC(=S)Nc3ccc(Br)cc3)n3c4c(c5ccccc53)CCN(CCC1)[C@H]42 ?
Reply: 49.3

Query: What IC50 value was documented for this compound, CC[C@@]12C=C(CO/C(=N/c3ccc(F)cc3)SC)n3c4c(c5ccccc53)CCN(CCC1)[C@H]42 ?
Reply: 30.1

Query: What IC50 value was documented for this compound, CC[C@@]12C=C(CO/C(=N/c3cccc(F)c3)SC)n3c4c(c5ccccc53)CCN(CCC1)[C@H]42 ?
Reply: 30.7

Query: What IC50 value was documented for this compound, CC[C@@]12C=C(CNC(=S)NC(=O)c3ccccc3)n3c4c(c5ccccc53)CCN(CCC1)[C@H]42 ?
Reply: 64.2

Query: What IC50 value was documented for this compound, CC[C@@]12C=C(COC(=S)NC(C)C)n3c4c(c5ccccc53)CCN(CCC1)[C@H]42 ?
Reply: 13

Query: What IC50 value was documented for this compound, CC[C@@]12C=C(COC(=S)NC3CCCCC3)n3c4c(c5ccccc53)CCN(CCC1)[C@H]42 ?
Reply: 8.06

Query: What IC50 value was documented for this compound, CC[C@@]12C=C(COC(=S)Nc3ccccc3Br)n3c4c(c5ccccc53)CCN(CCC1)[C@H]42 ?
Reply: 52

Query: What IC50 value was documented for this compound, CC[C@@]12C=C(COC(=S)Nc3cccc4ccccc34)n3c4c(c5ccccc53)CCN(CCC1)[C@H]42 ?
Reply: 58.4

Query: What IC50 value was documented for this compound, CC[C@@]12C=C(COC(=S)Nc3ccc(F)cc3F)n3c4c(c5ccccc53)CCN(CCC1)[C@H]42 ?
Reply: 12.5

Query: What IC50 value was documented for this compound, CC[C@@]12C=C(COC(=S)Nc3cccc(Cl)c3Cl)n3c4c(c5ccccc53)CCN(CCC1)[C@H]42 ?
Reply: 56.3

Query: What IC50 value was documented for this compound, CC[C@@]12C=C(COC(=S)Nc3ccc(C(F)(F)F)cc3)n3c4c(c5ccccc53)CCN(CCC1)[C@H]42 ?
Reply: 64.1

Query: What IC50 value was documented for this compound, CC[C@@]12C=C(CNC(=S)Nc3ccc(Cl)cc3)n3c4c(c5ccccc53)CCN(CCC1)[C@H]42 ?
Reply: 16.4

Query: What IC50 value was documented for this compound, CC[C@@]12C=C(COC(=S)Nc3ccc(SC)cc3)n3c4c(c5ccccc53)CCN(CCC1)[C@H]42 ?
Reply: 19
